- RUN DESCRIPTION: Phase 1 Stage 1 clinical pharmacokinetics of SC ZA co-administered with rHuPH20
- Format: in vivo, human
- MEASUREMENT PARAMETERS: human, serum, sc, ZA 1 mg SC + 24000 U rHuPH20; median, n=3
QUANTITY: CL/F (mL/min/kg)

ITEM SMILES | QUANTITY | OBSERVED VALUE
O=P(O)(O)C(O)(Cn1ccnc1)P(=O)(O)O | CL/F | 2.38

###

- RUN DESCRIPTION: Phase 1 Stage 1 clinical pharmacokinetics of SC ZA co-administered with rHuPH20
- Format: in vivo, human
- MEASUREMENT PARAMETERS: human, serum, sc, […], Subj 31; ZA […] SC; inf 0.554 hr; PH20 23952 U; read-out: Tmax

ITEM SMILES | Tmax
O=P(O)(O)C(O)(Cn1ccnc1)P(=O)(O)O | 1.54 h

Data credit: patent US20090311237A1
